Kindly state GI50 for each of the entries shown.
Tested on: NCI-H226
assay notes: In vitro growth inhibition of compound was determined against NCI-H226 cell lines of non-small cell lung cancer
Format: functional
condition info: Homo sapiens
Quick reminder: number only, in µM, skip the unit.

Dear colleague, I am looking for the recorded GI50 of the following molecule: `CCN(CC)C(=S)SS(=O)(=O)c1ccc([N+](=O)[O-])cc1`
83

Quick one: `CCN(CC)C(=S)SS(=O)(=O)c1ccc(N)cc1`
98

Quick one: `CCN(CC)C(=S)SS(=O)(=O)c1ccccc1[N+](=O)[O-]`
36

Quick one: `CCN(CC)C(=S)SS(=O)(=O)c1ccc(NC(C)=O)cc1`
35
